z-score of prototroph abundance for assorted compounds
- Tested on: Saccharomyces cerevisiae BY4741 SeMeCo community
- assay_procedure: z-score of prototroph abundance vs DMSO median; higher = larger share of this subpopulation than in DMSO controls
- recorded_conditions: 10 µM; 24 h; SM minimal medium; subpopulation (auxotrophy): Prototroph
Counter-ions that a name gives are not always drawn.
Answer with a number only.

Here are 3 compounds together with their reported answers.
Any idea what its z-score of prototroph abundance is? The compound is CCn1cc(C(=O)O)c(=O)c2cc(F)c(N3CCN(C)CC3)cc21 [Pefloxacin Mesylate]
0.1

Given the entry CCC(=O)c1c(O)cc(O)cc1O [Flopropione] , report its measured z-score of prototroph abundance.
0.7

What does the data say about its z-score of prototroph abundance? Entry: O=C1CC2(CCCC2)CC(=O)N1CCCCN1CCN(c2ncccn2)CC1 [Buspirone HCl]
0.7

More entries:
Any idea what z-score of prototroph abundance was measured for O=c1n(CCCN2CCN(c3cccc(Cl)c3)CC2)nc2ccccn12 [Trazodone HCl] ?
-0.06

Dear colleague, I am looking for the recorded z-score of prototroph abundance of the following compound: CC1(C)CC[C@]2(C(=O)O)CC[C@]3(C)C(=CC[C@@H]4[C@@]5(C)CC[C@H](O)C(C)(C)[C@@H]5CC[C@]43C)[C@@H]2C1 [Oleanolic Acid]
-0.29

What z-score of prototroph abundance value was documented for this compound, C[C@@H]1C/C=C/C=C/C=C/C=C/[C@H](O[C@@H]2O[C@H](C)[C@@H](O)[C@H](N)[C@@H]2O)C[C@@H]2O[C@](O)(C[C@@H](O)C[C@H]3O[C@@H]3/C=C/C(=O)O1)C[C@H](O)[C@H]2C(=O)O [Natamycin] ?
-16.3

Please report the recorded z-score of prototroph abundance for CN(Cc1ccc(C(C)(C)C)cc1)Cc1cccc2ccccc12 [Butenafine HCl] .
1.36

I'd like to know its z-score of prototroph abundance. The compound in question is CCN1CCC[C@H]1CNC(=O)c1cc(S(N)(=O)=O)ccc1OC [Levosulpiride]
0.49

Consider the compound O=C(O)CCCCCCCC(=O)O [Azelaic acid] and give its measured z-score of prototroph abundance.
-0.32

Fill in the blank: the reported z-score of prototroph abundance of CCC(=O)NS(=O)(=O)c1ccc(-c2c(-c3ccccc3)noc2C)cc1 [Parecoxib Sodium] is ____.
-1.76
